Tested on: Noggin (protein binding on small-molecule microarray)
assay.remarks: Noggin binders on small-molecule microarray, primary screen, biochemical, 635/667 nm fluorescence (AID 1095);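 also: score merges 667 nm feature fluorescence with signal to noise over triplicate slides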
setup.conditions: 635 nm fluorescence, higher = more signal
measurement.label: composite z-score
Provide a numeric answer; units are not to be included.

Measured composite z-score, CCOC(=O)[C@H](CC(C)C)NC(=O)CCC1CC(OC(=O)NCc2cccc3ccccc23)CC2(CCCC(COC(=O)NCCc3ccccc3OC)O2)O1 (stereo partly drawn) : 0.686

Further cases:
Measured composite z-score, COC(=O)[C@H](C)NC(=O)CCC1CC(OC(=O)NCc2ccc3c(c2)OCO3)CC2(CCCC(COC(=O)NCCOc3ccccc3)O2)O1 (stereo partly drawn) : 0.737

Measured composite z-score, CO[C@@H]1COC(=O)[C@H](C)NC(=O)[C@@H](C)COC(=O)CCC[C@H]1C : 0.209

Measured composite z-score, CC(C)[C@H](NC(=O)OC(C)(C)C)[C@@H](O)CC(=O)OC(C)(C)C : -0.531

Measured composite z-score, C=CC[C@@H]1C=C[C@H](ON=C2c3cc(OC)ccc3O[C@H](c3cccc(OC)c3)[C@H]2O)[C@@H](CO)O1 : -0.0543

Measured composite z-score, CCc1cc2c(nc1CC)CCN(CCC(C)=NOC(C)CN1CCCc3nc(C)c(C)cc31)C2 (stereo not drawn) : 1.13

Measured composite z-score, CO[C@@H]1COC(=O)CC=C[C@@H](C)[C@@H]2C=C[C@H](O)[C@@H](COC(=O)CCC[C@H]1C)O2 : 1.65

Measured composite z-score, CO[C@@H]1COC(=O)CC=C[C@@H](C)COC(=O)[C@H](COCc2ccccc2)NC(=O)CC=C[C@H]1C : 1.71

Measured composite z-score, CCOC(=O)C1=CC[C@H]2C(=O)N(CC)C(=O)[C@@H]12 : 0.344

Measured composite z-score, CCc1cc2c(nc1CC)CCN(CCC(C)=NOC[C@@H](O)[C@H]1O[C@@H]3OC(C)(C)O[C@@H]3[C@H]1O)C2 : 0.276

Measured composite z-score, C=COC[C@H]1CN2[C@@H](CC[C@@H](C)[C@@H]2c2ccc(Br)cc2)C(=O)O1 : 0.372

Measured composite z-score, COCC1=C2[C@@H](CCc3ccccc3)OB(O)C[C@@H]2n2c(=O)n(-c3ccccc3)c(=O)n2C1 : 0.264

Measured composite z-score, CC=CC1=C(CO)[C@H](O)[C@H]2O[C@H]2[C@H]1O : 0.834

Measured composite z-score, O=C1c2ccccc2[C@@]2(Cc3ccccc3N(C3CC3)C2=O)[C@H](c2ccc(CO)cc2)N1Cc1ccccc1C(F)(F)F : -1.31

Measured composite z-score, CCN1C(=O)[C@H]2[C@H]3[C@H](O)[C@H](O)CC(=NO[C@@H]4O[C@H](CO)[C@@H](O)[C@H](O)[C@H]4O)[C@@H]3CC[C@H]2C1=O : -0.103

Measured composite z-score, NCCCCCNC(=O)[C@@H]1C[C@@H]2C(=O)N3CCC[C@H]3C(=O)N2[C@@H]1c1cccc(OCCO)c1 : 0.989

Measured composite z-score, COCCOC(=O)N1C(=O)[C@@]2(c3ccccc31)[C@H](C(N)=O)[C@H]1C(=O)O[C@H](c3ccccc3)[C@H](c3ccccc3)N1[C@@H]2c1ccccc1OCCO : 1.32

Measured composite z-score, C=CC[C@@H]1C=C[C@H](ON=C[C@@H](OC)[C@H](C)C=CCC(=O)OC)[C@@H](CO)O1 : 0.471
